Parameter: IC50 (nM) Ca2+ assay (calcium mobilization induced by 10 nM SDF-1). Scope: all listed entries.
- TARGET OF ASSAY: human CXCR4 (human, UniProt P61073 1-352)
- Sequence (P61073 whole entry): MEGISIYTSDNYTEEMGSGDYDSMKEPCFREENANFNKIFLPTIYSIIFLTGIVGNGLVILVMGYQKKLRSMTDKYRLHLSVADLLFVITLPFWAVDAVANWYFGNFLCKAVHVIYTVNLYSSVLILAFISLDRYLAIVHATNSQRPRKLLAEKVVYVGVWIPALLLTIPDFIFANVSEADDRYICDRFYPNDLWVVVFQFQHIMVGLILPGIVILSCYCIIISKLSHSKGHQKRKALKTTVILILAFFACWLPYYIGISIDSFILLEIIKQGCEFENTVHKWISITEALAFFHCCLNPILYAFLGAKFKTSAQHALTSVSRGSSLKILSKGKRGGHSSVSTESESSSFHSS
- MEASUREMENT DESCRIPTION: cell-based or functional assay
Bridge positions count the residues as written; N and C are the ends. Square brackets hold non-standard residues; d marks the D form. Primed or numbered codes have the meaning given here. * marks the point of attachment. FITC′ = 5(6)-fluoresceinthioureido on Lys N-epsilon (Lys(FITC)); Dansyl = CN(C)c1cccc2c(S(=O)(=O)*)cccc12; 2Nal = N[C@@H](Cc1ccc2ccccc2c1)C(=O)O; Cit = NC(=O)NCCC[C@H](N)C(=O)O
MEASUREMENT NAME: IC50 (nM) Ca2+ assay (calcium mobilization induced by 10 nM SDF-1)

BINDER	UNITS TEXT	SIGN	TEST RESULT
cyclo(YK[Cit]CRG[dP]RRWCY[Cit]Q) (disulfide 4-11; not fully specified (residue 2, C-terminus)) [Example 9]	nM	=	500
cyclo(HHQCSA[dP]FRYCYQK(FITC′)) (disulfide 4-11; not fully specified (C-terminus)) [Example 11]	nM	=	27.5
cyclo(YRTCRG[dP]RR[2Nal]CY[Cit]K(FITC′)) (disulfide 4-11; not fully specified (C-terminus)) [Example 7]	nM	=	0.9
cyclo(YR[Cit]CRG[dP]RRWCYKQ) (disulfide 4-11; not fully specified (residue 13, C-terminus)) [Example 8]	nM	=	9.7
cyclo(YHYCSA[dP]FRYCYQK(FITC′)) (disulfide 4-11; not fully specified (C-terminus)) [Example 18]	nM	>	500
cyclo(LHTCRA[dP]RRYCYQK(FITC′)) (disulfide 4-11; not fully specified (C-terminus)) [Example 12]	nM	=	6.9
cyclo(YRTCRA[dP]RRYCYQK(FITC′)) (disulfide 4-11; not fully specified (C-terminus)) [Example 16]	nM	=	4.2
cyclo(YRYCRA[dP]FRFCYQK(FITC′)) (disulfide 4-11; not fully specified (C-terminus)) [Example 17]	nM	=	21.8
cyclo(YR[Cit]CRG[dP]RRWCY[Cit]K(Dansyl)) (disulfide 4-11; not fully specified (C-terminus)) [Example 1]	nM	=	122
cyclo(HHYCRA[dP]FRFCYQK(FITC′)) (disulfide 4-11; not fully specified (C-terminus)) [Example 13]	nM	=	29
cyclo(YRTCRG[dP]RR[2Nal]CY[Cit]K) (disulfide 4-11; not fully specified (residue 14, C-terminus)) [Example 6]	nM	=	37.4
cyclo(YR[Cit]CRG[dP]RRWCY[Cit]Q) (disulfide 4-11; not fully specified (C-terminus), the dye sits on the template; also called Ex. 4) [Example 4]	nM	=	13.4
cyclo(YRKCRG[dP]RRWCY[Cit]Q) (disulfide 4-11; not fully specified (residue 3, C-terminus)) [Example 5]	nM	=	4.9

Value source: patent US9073973B2
